test: Oral bioavailability in cynomolgus monkey at 2 mg/kg measured upto 24 hrs by LC-MS/MS analysis; assay type: ADME, organism-based, Macaca fascicularis; details: in vivo
PROPERTY_LABEL: bioavailability (%)

SMILES_STRING	VALUE_UNITS	OBSERVED_VALUE
O=C(NS(=O)(=O)N1CCC1)c1cc(C2CC2)c(OCC23CC4CC(CC(C4)C2)C3)cc1F	%	30
C[C@@H](c1cc(Cl)cc(Cl)c1)N1CCC(COc2cc(F)c(C(=O)NS(C)(=O)=O)cc2C2CC2)CC1	%	82

====

experiment: Lipophilicity, logD of the compound at pH 7.4 by shake flask assay based LC-MS/MS analysis; format: physicochemical; settings: buffer
Class (by logD) -- lo (below 2), mid (2 to below 3), hi (3 or more)

SMILES_STRING	DISCRETE_LABEL
CS(=O)(=O)NC(=O)c1cc(C2CC2)c(OCC2CCN(C(=O)c3cc(Cl)cc(Cl)c3)CC2)cc1F	lo
CS(=O)(=O)NC(=O)c1cc(C2CC2)c(OCC2CCN(C(c3ccccc3)c3ccccc3)CC2)cc1F	mid
C[C@@H](c1cc(Cl)cc(Cl)c1)N1CCC(COc2cc(F)c(C(=O)NS(C)(=O)=O)cc2C2CC2)CC1	mid
CS(=O)(=O)NC(=O)c1cc(C2CC2)c(OCC23CC4CC(CC(C4)C2)C3)cc1F	hi
O=C(NS(=O)(=O)N1CCCC1)c1cc(C2CC2)c(OCC23CC4CC(CC(C4)C2)C3)cc1F	hi
O=C(NS(=O)(=O)N1CCOCC1)c1cc(C2CC2)c(OCC23CC4CC(CC(C4)C2)C3)cc1F	hi
C[C@H](c1cc(Cl)cc(Cl)c1)N1CCC(COc2cc(F)c(C(=O)NS(C)(=O)=O)cc2C2CC2)CC1	mid
CS(=O)(=O)NC(=O)c1cc(C2CC2)c(OCC2CCN(Cc3ccccc3)CC2)cc1F	lo
O=C(NS(=O)(=O)C1COC1)c1cc(C2CC2)c(OCC23CC4CC(CC(C4)C2)C3)cc1F	hi
CS(=O)(=O)NC(=O)c1cc(C2CC2)c(OCC2CN(Cc3ccccc3)C2)cc1F	lo
O=C(NS(=O)(=O)C1CC1)c1cc(C2CC2)c(OCC23CC4CC(CC(C4)C2)C3)cc1F	hi
O=C(NS(=O)(=O)N1CCC1)c1cc(C2CC2)c(OCC23CC4CC(CC(C4)C2)C3)cc1F	hi
CS(=O)(=O)NC(=O)c1cc(C2CC2)c(OCC2CCN(Cc3ccc(OC(F)(F)F)cc3)CC2)cc1F	lo
CC(C)(c1cc(Cl)cc(Cl)c1)N1CCC(COc2cc(F)c(C(=O)NS(C)(=O)=O)cc2C2CC2)CC1	hi
CS(=O)(=O)NC(=O)c1cc(C2CC2)c(OCC2CN(C(c3ccccc3)c3ccccc3)C2)cc1F	lo
